PROTOCOL_TEXT: pharmacokinetics in human clinical trials, plasma KRN7000 by LC-MS/MS
Type: in vivo
PROTOCOL_CONDITIONS: plasma, iv, 100 ug/kg, plasma KRN7000 after RGI-2001-003 iv 100 μg/kg weekly, patients, Day 0, read-out: AUC0-4
Experimental: In a phase I clinical trial, RGI-2001-001 was administered intravenously at a dose of 100 μg/kg as KRN7000 within 30 minutes after transplantation to six patients who had received hematopoietic stem cell transplantation. 2 mL of peripheral blood was collected before and 0.5, 1, 2, 4, 6, 8, 24, 48, 72, and 96 hours after transplantation, respectively, and plasma components were collected. KRN7000 in each plasma was separated and identified by liquid chromatography-mass spectrometry (LC-MS/MS). […]
EXPERIMENTAL_READOUT: AUC(0-t)
Please state the number and follow it with the unit.

Incoming: Any idea what its AUC(0-t) is? The compound is CCCCCCCCCCCCCCCCCCCCCCCCCC(=O)N[C@@H](CO[C@H]1OC(CO)[C@H](O)C(O)C1O)[C@H](O)[C@H](O)CCCCCCCCCCCCCC (stereo partly shown) [KRN7000]
Outgoing: 3000 ng·h/mL

----------
PROTOCOL_TEXT: pharmacokinetics in human clinical trials, plasma KRN7000 by LC-MS/MS
Format: in vivo
PROTOCOL_CONDITIONS: 100 ug/kg, plasma KRN7000 after RGI-2001-003 iv 100 μg/kg weekly, patients, Day 0, read-out: *Est. AUC0-inf
EXPERIMENTAL_READOUT: AUC(0-inf)
Please state the number and follow it with the unit.

Incoming: Any idea what its AUC(0-inf) is? The compound is CCCCCCCCCCCCCCCCCCCCCCCCCC(=O)N[C@@H](CO[C@H]1OC(CO)[C@H](O)C(O)C1O)[C@H](O)[C@H](O)CCCCCCCCCCCCCC (stereo partly shown)
Outgoing: 42500 ng·h/mL

----------
PROTOCOL_TEXT: pharmacokinetics in human clinical trials, plasma KRN7000 by LC-MS/MS
Type: in vivo
PROTOCOL_CONDITIONS: plasma, iv, 100 ug/kg, plasma KRN7000 after RGI-2001-003 iv 100 μg/kg weekly, patients, Day 14, read-out: AUC0-4
EXPERIMENTAL_READOUT: AUC(0-t) (µg·h/mL)
Answer in µg·h/mL, number only, no unit symbol.

Incoming: Any idea what its AUC(0-t) is? The compound is CCCCCCCCCCCCCCCCCCCCCCCCCC(=O)N[C@@H](CO[C@H]1OC(CO)[C@H](O)C(O)C1O)[C@H](O)[C@H](O)CCCCCCCCCCCCCC (stereo partly shown) [KRN7000]
Outgoing: 1.89

----------
PROTOCOL_TEXT: pharmacokinetics in human clinical trials, plasma KRN7000 by LC-MS/MS
Type: in vivo
PROTOCOL_CONDITIONS: plasma, iv, 100 ug/kg, plasma KRN7000 after RGI-2001-003 iv 100 μg/kg weekly, patients, Day 14
EXPERIMENTAL_READOUT: Cmax (ng/mL)
Answer in ng/mL, number only, no unit symbol.

Incoming: Any idea what its Cmax is? The compound is CCCCCCCCCCCCCCCCCCCCCCCCCC(=O)N[C@@H](CO[C@H]1OC(CO)[C@H](O)C(O)C1O)[C@H](O)[C@H](O)CCCCCCCCCCCCCC (stereo partly shown)
Outgoing: 570
